test system: A431; test: A431 cell proliferation assay (CellTiter Glo, 72 hours); assay type: cell-based; details: Homo sapiens, A-431, 72 h, cell proliferation, A431, 72 hours, Table 2; read-out: A431 IC50
What IC50 was measured for each of the following?

In [3]: df
Out[3]:
                              smiles_record   result
0  CCc1cc(Nc2ncc(Br)c(Nc3ccc(-c4ccc(F)cc4F)cc3P(C)(C)=O)n2)c(OC)cc1N1CCC(N2CCN(C)CC2)CC1  > 10 µM
1  CCc1cc(Nc2ncc(Br)c(Nc3ccc(-c4cn(C)nc4C#N)cc3P(C)(C)=O)n2)c(OC)cc1N1CCC(N2CCN(C)CC2)CC1  > 10 µM

Now look at this one.
## Input Which IC50 value is on record for CCc1cc(Nc2ncc(Br)c(Nc3ccc(-c4ccc(N(C)C)nn4)cc3P(C)(C)=O)n2)c(OC)cc1N1CCC(N2CCN(C)CC2)CC1 ?
## Output > 10 µM
